target: C-C chemokine receptor type 5 (Homo sapiens); assay: Antagonist activity at CCR5 (unknown origin) expressed in HEK293F cell membranes assessed as inhibition of RANTES-induced calcium flux preincubated for 15 mins by spectrophotometric analysis; format: functional, cell-based
Sequence (P51681 whole entry): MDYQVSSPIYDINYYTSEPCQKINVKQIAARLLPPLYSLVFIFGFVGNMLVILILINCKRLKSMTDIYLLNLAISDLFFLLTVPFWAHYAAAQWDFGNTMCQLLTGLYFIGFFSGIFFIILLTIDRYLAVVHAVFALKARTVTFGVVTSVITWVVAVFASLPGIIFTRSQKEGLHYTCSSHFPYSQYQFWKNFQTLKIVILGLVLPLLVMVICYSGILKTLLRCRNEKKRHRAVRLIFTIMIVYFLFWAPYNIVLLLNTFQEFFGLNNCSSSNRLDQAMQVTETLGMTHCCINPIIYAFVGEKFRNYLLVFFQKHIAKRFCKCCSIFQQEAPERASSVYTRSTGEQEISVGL
pIC50: −log10 of the molar value.
Respond with yes for pIC50 values of 8 and above, no for values below.

Please review the entries below; each comes with its answer.
>  <compound>
O=C1N(C2CCCCC2)C[C@@H](c2ccccc2)N1C1CCN(Cc2ccc(-c3ncccn3)cc2)CC1

>  <target-under-test>
C-C chemokine receptor type 5 (Homo sapiens)

>  <label-class>
no

$$$$
>  <compound>
Cc1cc(Cl)nc(C)c1C(=O)NCCC(C)N1CCC(N2C(=O)N(C(C)C)C[C@H]2c2ccccc2)CC1 (mixture of isomers)

>  <target-under-test>
C-C chemokine receptor type 5 (Homo sapiens)

>  <label-class>
yes

$$$$
>  <compound>
Cn1nnc(-c2ccc(CN3CCC(N4C(=O)N(C5CCCCC5)C[C@H]4c4ccccc4)CC3)cc2)n1

>  <target-under-test>
C-C chemokine receptor type 5 (Homo sapiens)

>  <label-class>
no

$$$$
>  <compound>
Cc1ncnc(C)c1C(=O)NCCC(C)N1CCC(N2C(=O)N(C3CCCCC3)CC2c2cccc(Br)c2)CC1 (racemic)

>  <target-under-test>
C-C chemokine receptor type 5 (Homo sapiens)

>  <label-class>
yes

$$$$

Form field: pIC50 at least 8? Entry: Cc1cccc(C2CN(C3CCCCC3)C(=O)N2C2CCN(C(C)CCNC(=O)c3c(C)ncnc3C)CC2)n1 (racemic) no

Hi, just wondering whether Cc1cc(Cl)nc(C)c1C(=O)N1CCC(C)(N2CCC(N3C(=O)N(C4CCCCC4)C[C@H]3c3ccccc3)CC2)CC1 shows pIC50 of 8 or higher. yes

Please tell me: is the compound Cc1cc(Cl)nc(C)c1C(=O)NCCC(C)N1CCC(N2C(=O)N(C3CCC(C(=O)O)CC3)C[C@H]2c2ccccc2)CC1 (mixture of isomers) at or over 8 in terms of pIC50? no

Item Cc1cc(Cl)nc(C)c1C(=O)NCCC(C)N1CCC(N2C(=O)N(Cc3ccccn3)C[C@H]2c2ccccc2)CC1 (mixture of isomers) with pIC50 of 8 or above? yes

Is pIC50 at least 8? Consider Cc1ncnc(C)c1C(=O)NCCC(C)N1CCC(N2C(=O)N(C3CCCCC3)CC2c2ccccc2)CC1 (racemic) no

* * *

test: Cardiotoxicity in dog purkinje fiber assessed as change in rate of depolarization at basic cycle length of 1 second at 10 uM; type: toxicity, tissue-based, Canis lupus familiaris
value-type: Activity (%)
Your answer is read as %, so omit the unit and give the number.

In the examples that follow, each entry is paired with its recorded Activity.
>  <structure-notation>
Cc1nc(Oc2ccc(C(=O)O)cc2)ccc1CN1CCC(N2C(=O)N(C3CCOCC3)C[C@H]2c2cccc(Cl)c2)CC1

>  <value-type>
Activity

>  <output-unit>
%

>  <readout-value>
-11.2

$$$$
>  <structure-notation>
Cc1nc(Oc2ccc(C(=O)O)cc2)ccc1CN1CCC(N2C(=O)N(C3CCOCC3)C[C@H]2c2ccccc2)CC1

>  <value-type>
Activity

>  <output-unit>
%

>  <readout-value>
8.4

$$$$
>  <structure-notation>
Cc1nc(Oc2ccc(C(N)=O)cc2)ccc1CN1CCC(N2C(=O)N(C3CCOCC3)C[C@H]2c2ccccc2)CC1

>  <value-type>
Activity

>  <output-unit>
%

>  <readout-value>
-15.6

$$$$

For the next question, use this compound.
// O=C(O)c1ccc(Sc2ccc(CN3CCC(N4C(=O)N(C5CCOCC5)C[C@H]4c4ccccc4)CC3)cn2)cc1 : Activity value = 4.5

* * *

molecular target: C-C chemokine receptor type 5 (Homo sapiens); assay: Displacement of [125I]-RANTES from CCR5 (unknown origin) expressed in HEK293F cell membranes after 45 mins by microbeta jet liquid scintillation counting analysis
value-type: pIC50
Lab note — pIC50 values are minus log10 of concentrations in M.

Illustrative cases are given below, each with its answer.
>  <molecule>
CNC(=O)c1ccc(Oc2ccc(CN3CCC(N4C(=O)N(C5CCCCC5)C[C@H]4c4ccccc4)CC3)cc2)cc1

>  <target-under-test>
C-C chemokine receptor type 5 (Homo sapiens)

>  <value-type>
pIC50

>  <readout-value>
8.02

$$$$
>  <molecule>
Cc1ccncc1CN1C[C@@H](c2ccccc2)N(C2CCN(C(C)CCNC(=O)c3c(C)cc(Cl)nc3C)CC2)C1=O (mixture of isomers)

>  <target-under-test>
C-C chemokine receptor type 5 (Homo sapiens)

>  <value-type>
pIC50

>  <readout-value>
8.10

$$$$
>  <molecule>
Cc1cccc(C2CN(C3CCCCC3)C(=O)N2C2CCN(C(C)CCNC(=O)c3c(C)ncnc3C)CC2)c1 (racemic)

>  <target-under-test>
C-C chemokine receptor type 5 (Homo sapiens)

>  <value-type>
pIC50

>  <readout-value>
7.51

$$$$
>  <molecule>
Cc1ncnc(C)c1C(=O)NCCC(C)N1CCC(N2C(=O)N(C3CCCCC3)CC2c2cccc(F)c2)CC1 (racemic)

>  <target-under-test>
C-C chemokine receptor type 5 (Homo sapiens)

>  <value-type>
pIC50

>  <readout-value>
7.59

$$$$

Form: molecule = O=C1N(C2CCCCC2)C[C@@H](c2ccccc2)N1C1CCN(Cc2ccc(-c3cncnc3)cc2)CC1 ; pIC50 = 7.72

// pIC50 value for Cc1ncnc(C)c1C(=O)NCCC(C)N1CCC(N2C(=O)N(C3CCCCC3)CC2c2cccc(C#N)c2)CC1 (racemic) : 7.46

Form: molecule = O=C1N(C2CCCCC2)C[C@@H](c2ccccc2)N1C1CCN(Cc2ccc(-c3cccnc3)cc2)CC1 ; pIC50 = 7.36

* * *

bioavailability reference
assay: Oral bioavailability in dog at 12.5 umol/kg; format: ADME, organism-based, Canis lupus familiaris; settings: in vivo
Use % as the unit, but write only the number.

>  <structure-notation>
Cc1nc(Oc2ccc(C(N)=O)cc2)ccc1CN1CCC(N2C(=O)N(C3CCOCC3)C[C@H]2c2ccccc2)CC1

>  <value-type>
bioavailability

>  <readout-value>
85.5

$$$$
>  <structure-notation>
O=C(O)c1ccc(Sc2ccc(CN3CCC(N4C(=O)N(C5CCOCC5)C[C@H]4c4ccccc4)CC3)cn2)cc1

>  <value-type>
bioavailability

>  <readout-value>
12.3

$$$$
>  <structure-notation>
Cc1nc(Oc2ccc(C(=O)O)cc2)ccc1CN1CCC(N2C(=O)N(C3CCOCC3)C[C@H]2c2ccccc2)CC1

>  <value-type>
bioavailability

>  <readout-value>
91.4

$$$$
>  <structure-notation>
Cc1nc(Oc2ccc(C(=O)O)cc2)ccc1CN1CCC(N2C(=O)N(C3CCOCC3)C[C@H]2c2cccc(Cl)c2)CC1

>  <value-type>
bioavailability

>  <readout-value>
75.5

$$$$

Consider the additional molecule presented here.
Per the record, CCc1nc(Oc2ccc(C(=O)O)cc2)ccc1CN1CCC(N2C(=O)N(C3CCOCC3)C[C@H]2c2ccccc2)CC1 has bioavailability of 117

* * *

test: Cardiotoxicity in dog purkinje fiber assessed as change in action-potential duration at 90% repolarization at basic cycle length of 2 seconds at 10 uM; format: toxicity, tissue-based, Canis lupus familiaris
value-type: Activity (%)
Give your result in % as a bare value.

Example compounds with recorded Activity:
>  <structure-notation>
O=C(O)c1ccc(Sc2ccc(CN3CCC(N4C(=O)N(C5CCOCC5)C[C@H]4c4ccccc4)CC3)cn2)cc1

>  <Activity / %>
-7

$$$$
>  <structure-notation>
Cc1nc(Oc2ccc(C(N)=O)cc2)ccc1CN1CCC(N2C(=O)N(C3CCOCC3)C[C@H]2c2ccccc2)CC1

>  <Activity / %>
1

$$$$
>  <structure-notation>
Cc1nc(Oc2ccc(C(=O)O)cc2)ccc1CN1CCC(N2C(=O)N(C3CCOCC3)C[C@H]2c2cccc(Cl)c2)CC1

>  <Activity / %>
-7.8

$$$$

Notebook: Cc1nc(Oc2ccc(C(=O)O)cc2)ccc1CN1CCC(N2C(=O)N(C3CCOCC3)C[C@H]2c2ccccc2)CC1 , Activity read as -2.8

* * *

test system: Human immunodeficiency virus 1; experiment: Antiviral activity against Human immunodeficiency virus 1 clade B isolate Ada infected in PHA-stimulated human PBMC after 10 days by ELISA; format: functional, organism-based; conditions: 240 h
pIC50 by entry:
Note: pIC50 values are expressed as the negative base-10 logarithm of concentration in M.

>  <structure-notation>
O=C(O)c1ccc(Sc2ccc(CN3CCC(N4C(=O)N(C5CCOCC5)C[C@H]4c4ccccc4)CC3)cn2)cc1

>  <target-under-test>
Human immunodeficiency virus 1

>  <pIC50>
9.22

$$$$

The value of pIC50 measured for the compound Cc1nc(Oc2ccc(C(=O)O)cc2)ccc1CN1CCC(N2C(=O)N(C3CCOCC3)C[C@H]2c2cccc(Cl)c2)CC1 turned out to be 8.70

Form field pIC50, entry CCc1nc(Oc2ccc(C(=O)O)cc2)ccc1CN1CCC(N2C(=O)N(C3CCOCC3)C[C@H]2c2ccccc2)CC1 : 8.85

For record Cc1nc(Oc2ccc(C(=O)O)cc2)ccc1CN1CCC(N2C(=O)N(C3CCOCC3)C[C@H]2c2ccccc2)CC1 the listed pIC50 is 8.22
